B1: RIT1 (parent)
chain: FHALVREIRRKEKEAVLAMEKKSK

variants of: B1; test: protein stability index of a GFP-peptide fusion (GPS, HEK-293T) (PSI 1-6); higher = more stable; settings: c terminus: a fixed tail appended;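 note: lentivirally expressed fusions sorted by FACS into six bins by GFP to DsRed ratio, PSI derived from sequencing read proportions per bin multiplied by bin number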
Listed next: entries and their corresponding protein stability index.

- variant-name: "V16W"
  protein stability index: 2.27
- variant-name: "A3L"
  protein stability index: 1.97
- variant-name: "K13S"
  protein stability index: 2.42
- variant-name: "V16F"
  protein stability index: 2.45
- variant-name: "K11L"
  protein stability index: 2.16
- variant-name: "L4R"
  protein stability index: 2.44
- variant-name: "K13P"
  protein stability index: 2.32
